We begin with a simple list: items and their reported Peak area of product (4,4-dithio-bis-acid nitrobenzoic), mean.
assay system: Acetylcholinesterase human (AChE) (Homo sapiens)
Construct: purchased Sigma-Aldrich (Poznań, Poland)
Sequence (P22303 32-614): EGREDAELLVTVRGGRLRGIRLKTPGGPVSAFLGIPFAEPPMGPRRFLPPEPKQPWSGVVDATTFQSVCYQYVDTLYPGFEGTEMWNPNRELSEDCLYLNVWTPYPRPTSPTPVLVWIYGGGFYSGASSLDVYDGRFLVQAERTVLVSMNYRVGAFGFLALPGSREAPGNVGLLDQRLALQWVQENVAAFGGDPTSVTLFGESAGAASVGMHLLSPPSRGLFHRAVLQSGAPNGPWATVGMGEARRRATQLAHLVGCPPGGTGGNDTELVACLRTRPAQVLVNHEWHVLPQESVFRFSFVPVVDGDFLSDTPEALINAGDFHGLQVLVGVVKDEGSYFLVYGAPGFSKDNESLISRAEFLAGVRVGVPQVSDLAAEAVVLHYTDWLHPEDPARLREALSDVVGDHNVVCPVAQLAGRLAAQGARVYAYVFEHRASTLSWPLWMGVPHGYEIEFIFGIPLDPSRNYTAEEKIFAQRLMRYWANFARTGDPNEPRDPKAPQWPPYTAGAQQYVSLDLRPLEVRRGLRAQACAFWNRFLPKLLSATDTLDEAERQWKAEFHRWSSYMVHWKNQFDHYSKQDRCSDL
protocol: AChE inhibition kinetics, Ellman's method combined with capillary electrophoresis
Type: biochemical
measurement setup: inhibitor 0.08 mM; acetylthiocholine 0.36 mM
Reply briefly: the number, and no unit.

compound="CN(C)CC(O)CN1C(=O)C2C(C1=O)C1(C)C(=O)C2(C)C(c2ccccc2)=C1c1ccccc1 (stereo not shown) [Compound (IV)]" assay_system="Acetylcholinesterase human (AChE) (Homo sapiens)" quantitative_result=45817

Peak area of product (4,4-dithio-bis-acid nitrobenzoic), mean in this record for CC(C)NCC(O)CN1C(=O)C2C(C1=O)C1(C)C(=O)C2(C)C(c2ccccc2)=C1c1ccccc1 (stereo not shown) [Compound (III)] : 39497

Measured Peak area of product (4,4-dithio-bis-acid nitrobenzoic), mean, CCC12C(=O)C(CC)(C(c3ccccc3)=C1c1ccccc1)C1C(=O)N(CC(O)CN(C)C)C(=O)C12 (stereo not shown) [Compound (II)] : 56086

The value of Peak area of product (4,4-dithio-bis-acid nitrobenzoic), mean measured for the compound CCC12C(=O)C(CC)(C(c3ccccc3)=C1c1ccccc1)C1C(=O)N(CC(O)CNC(C)C)C(=O)C12 (stereo not shown) [Compound (I)] turned out to be 49766
